Test system: HL-60
test.method.notes: cell viability (% survival relative to DMSO control); higher = less cytotoxic
condition.context: 0.01 µM; 72 h; co-treatment: AZD3965 100 nM
assay.endpoint: cell viability (%)
One number for each entry, in %.

Some molecules with recorded cell viability:
# molecule, unit.of.measure, cell viability
measured = [
    ("O=C(c1ccc(OCCN2CCCCC2)cc1)c1c(-c2ccc(O)cc2)sc2cc(O)ccc12 [Raloxifene]", "%", 91.9),
    ("O=C1Nc2ccccc2/C1=C\\NCCc1ccc(O)c(O)c1 [AC1NZZMF]", "%", 90.2),
]

In the following, a different molecule is considered.
Please look up its cell viability: COc1c(C)c2c(c(O)c1C/C=C(\C)CCC(=O)O)C(=O)OC2 [Mycophenolic acid] 89.8

Numbers sourced from the supplement of paper PMC8671470.
